Hi there, I'd appreciate the recorded Kapp for every entry that follows.
experiment: Binding affinity at polyA ssRNA by competition dialysis assay

[
  {
    "compound": "COC(=O)C12OC(C(=O)OC)(C3C4CC(C5C(=O)N(CCNC(=O)c6cccc7cc8ccccc8nc67)C(=O)C45)C31)C1C3CC(C4C(=O)N(CCNC(=O)c5cccc6cc7ccccc7nc56)C(=O)C34)C12 (stereo not drawn)",
    "Kapp": "0.53 10^3/M"
  },
  {
    "compound": "COC(=O)C12OC(C(=O)OC)(C3C4CC(C5C(=O)N(CCNc6c7ccccc7nc7ccccc67)C(=O)C45)C31)C1C3CC(C4C(=O)N(CCNc5c6ccccc6nc6ccccc56)C(=O)C34)C12 (stereo not drawn)",
    "Kapp": "2.93 10^3/M"
  }
]

Now for another entry.
Per the records, this compound ( COC(=O)C12OC(C(=O)OC)(C3C4CC(C5C(=O)N(CCNC(=O)c6cccc7cc8ccccc8nc67)C(=O)C45)C31)C1C3CC(C4C(=O)N(CCNc5c6ccccc6nc6ccccc56)C(=O)C34)C12 (stereo not drawn) ) has Kapp equal to 0.27 10^3/M

====

Hi there, I'd appreciate the recorded Kapp for every entry that follows.
test system: Escherichia coli; assay: Binding affinity at Escherichia coli double stranded DNA by competition dialysis assay

# annotated cases, reported Kapp shown
[
  {
    "compound": "COC(=O)C12OC(C(=O)OC)(C3C4CC(C5C(=O)N(CCNC(=O)c6cccc7cc8ccccc8nc67)C(=O)C45)C31)C1C3CC(C4C(=O)N(CCNC(=O)c5cccc6cc7ccccc7nc56)C(=O)C34)C12 (configuration not stated)",
    "Kapp": "6.8 10^3/M"
  },
  {
    "compound": "FC(F)(F)C12OC(C(F)(F)F)(C3C4CC(C5CN(CCNc6c7ccccc7nc7ccccc67)CC54)C31)C1C3CC(C4CN(CCNc5c6ccccc6nc6ccccc56)CC43)C12 (configuration not stated)",
    "Kapp": "19.1 10^3/M"
  },
  {
    "compound": "COC(=O)C12OC(C(=O)OC)(C3C4CC(C5C(=O)N(CCNC(=O)c6cccc7cc8ccccc8nc67)C(=O)C45)C31)C1C3CC(C4C(=O)N(CCNc5c6ccccc6nc6ccccc56)C(=O)C34)C12 (configuration not stated)",
    "Kapp": "12.9 10^3/M"
  },
  {
    "compound": "COC(=O)C12OC(C(=O)OC)(C3C4CC(C5C(=O)N(CCNc6c7ccccc7nc7ccccc67)C(=O)C45)C31)C1C3CC(C12)C1C3C2(C(=O)OC)OC1(C(=O)OC)C1C3CC(C4C(=O)N(CCNc5c6ccccc6nc6ccccc56)C(=O)C34)C12 (configuration not stated)",
    "Kapp": "25.7 10^3/M"
  }
]

Batch of 3 compounds: report Kapp for each.
1. COC(=O)C12OC(C(=O)OC)(C3C4CC(C5C(=O)N(CCNc6c7ccccc7nc7ccccc67)C(=O)C45)C31)C1C3CC(C4C(=O)N(CCNc5c6ccccc6nc6ccccc56)C(=O)C34)C12 (configuration not stated)
2. O=C1C2C3C=CC(C3)C2C(=O)N1CCNc1c2ccccc2nc2ccccc12 (configuration not stated)
3. COC(=O)C12OC(C(=O)OC)(C3C4CC(C5C(=O)N(CCNc6c7ccccc7nc7ccccc67)C(=O)C45)C31)C1C3CC(C4C(=O)N(CCN5C(=O)c6cccc7cccc(c67)C5=O)C(=O)C34)C12 (configuration not stated)

1: 32.8 10^3/M; 2: 3.47 10^3/M; 3: 14.9 10^3/M

====

Hi there, I'd appreciate the recorded Kapp for every entry that follows.
experiment: Binding affinity at poly (dGdC). poly (dGdC) dsDNA polynucleotide by competition dialysis assay

[
  {
    "molecule": "COC(=O)C12OC(C(=O)OC)(C3C4CC(C5C(=O)N(CCNc6c7ccccc7nc7ccccc67)C(=O)C45)C31)C1C3CC(C4C(=O)N(CCN5C(=O)c6cccc7cccc(c67)C5=O)C(=O)C34)C12 (configuration not stated)",
    "result.value": "8.13 10^3/M"
  }
]

Batch of 6 molecules: report Kapp for each.
1. O=C1C2C3C=CC(C3)C2C(=O)N1CCNc1c2ccccc2nc2ccccc12 (configuration not stated)
2. FC(F)(F)C12OC(C(F)(F)F)(C3C4CC(C5CN(CCNc6c7ccccc7nc7ccccc67)CC54)C31)C1C3CC(C4CN(CCNc5c6ccccc6nc6ccccc56)CC43)C12 (configuration not stated)
3. COC(=O)C12OC(C(=O)OC)(C3C4CC(C5C(=O)N(CCNC(=O)c6cccc7cc8ccccc8nc67)C(=O)C45)C31)C1C3CC(C4C(=O)N(CCNC(=O)c5cccc6cc7ccccc7nc56)C(=O)C34)C12 (configuration not stated)
4. COC(=O)C12OC(C(=O)OC)(C3C4CC(C5C(=O)N(CCNc6c7ccccc7nc7ccccc67)C(=O)C45)C31)C1C3CC(C4C(=O)N(CCNc5c6ccccc6nc6ccccc56)C(=O)C34)C12 (configuration not stated)
5. COC(=O)C12OC(C(=O)OC)(C3C4CC(C5C(=O)N(CCNc6c7ccccc7nc7ccccc67)C(=O)C45)C31)C1C3CC(C12)C1C3C2(C(=O)OC)OC1(C(=O)OC)C1C3CC(C4C(=O)N(CCNc5c6ccccc6nc6ccccc56)C(=O)C34)C12 (configuration not stated)
6. COC(=O)C12OC(C(=O)OC)(C3C4CC(C5C(=O)N(CCNC(=O)c6cccc7cc8ccccc8nc67)C(=O)C45)C31)C1C3CC(C4C(=O)N(CCNc5c6ccccc6nc6ccccc56)C(=O)C34)C12 (configuration not stated)

1. 3.47 10^3/M
2. 27.6 10^3/M
3. 9.6 10^3/M
4. 28.4 10^3/M
5. 26.4 10^3/M
6. 15.6 10^3/M

====

test system: Triticum aestivum; assay: Binding affinity at wheat germ single stranded RNA by competition assay
result.type: Kapp

# annotated cases, reported Kapp shown
[
  {
    "molecule": "COC(=O)C12OC(C(=O)OC)(C3C4CC(C5C(=O)N(CCNc6c7ccccc7nc7ccccc67)C(=O)C45)C31)C1C3CC(C4C(=O)N(CCNc5c6ccccc6nc6ccccc56)C(=O)C34)C12 (centres undefined)",
    "test.target": "Triticum aestivum",
    "Kapp": "8.8 10^3/M"
  },
  {
    "molecule": "COC(=O)C12OC(C(=O)OC)(C3C4CC(C5C(=O)N(CCNc6c7ccccc7nc7ccccc67)C(=O)C45)C31)C1C3CC(C4C(=O)N(CCN5C(=O)c6cccc7cccc(c67)C5=O)C(=O)C34)C12 (centres undefined)",
    "test.target": "Triticum aestivum",
    "Kapp": "7.6 10^3/M"
  },
  {
    "molecule": "COC(=O)C12OC(C(=O)OC)(C3C4CC(C5C(=O)N(CCNc6c7ccccc7nc7ccccc67)C(=O)C45)C31)C1C3CC(C12)C1C3C2(C(=O)OC)OC1(C(=O)OC)C1C3CC(C4C(=O)N(CCNc5c6ccccc6nc6ccccc56)C(=O)C34)C12 (centres undefined)",
    "test.target": "Triticum aestivum",
    "Kapp": "5.33 10^3/M"
  }
]

Per the records, this molecule ( O=C1C2C3C=CC(C3)C2C(=O)N1CCNc1c2ccccc2nc2ccccc12 (centres undefined) ) has Kapp equal to 2.4 10^3/M

====

assay: Binding affinity at poly(dA).poly(dT) dsDNA polynucleotide by competition dialysis assay
result.type: Kapp

# annotated cases, reported Kapp shown
[
  {
    "compound": "COC(=O)C12OC(C(=O)OC)(C3C4CC(C5C(=O)N(CCNc6c7ccccc7nc7ccccc67)C(=O)C45)C31)C1C3CC(C4C(=O)N(CCN5C(=O)c6cccc7cccc(c67)C5=O)C(=O)C34)C12 (configuration not stated)",
    "Kapp": "3.87 10^3/M"
  },
  {
    "compound": "O=C1C2C3C=CC(C3)C2C(=O)N1CCNc1c2ccccc2nc2ccccc12 (configuration not stated)",
    "Kapp": "0.53 10^3/M"
  },
  {
    "compound": "FC(F)(F)C12OC(C(F)(F)F)(C3C4CC(C5CN(CCNc6c7ccccc7nc7ccccc67)CC54)C31)C1C3CC(C4CN(CCNc5c6ccccc6nc6ccccc56)CC43)C12 (configuration not stated)",
    "Kapp": "19.6 10^3/M"
  },
  {
    "compound": "COC(=O)C12OC(C(=O)OC)(C3C4CC(C5C(=O)N(CCNc6c7ccccc7nc7ccccc67)C(=O)C45)C31)C1C3CC(C12)C1C3C2(C(=O)OC)OC1(C(=O)OC)C1C3CC(C4C(=O)N(CCNc5c6ccccc6nc6ccccc56)C(=O)C34)C12 (configuration not stated)",
    "Kapp": "23.7 10^3/M"
  },
  {
    "compound": "COC(=O)C12OC(C(=O)OC)(C3C4CC(C5C(=O)N(CCNC(=O)c6cccc7cc8ccccc8nc67)C(=O)C45)C31)C1C3CC(C4C(=O)N(CCNc5c6ccccc6nc6ccccc56)C(=O)C34)C12 (configuration not stated)",
    "Kapp": "0.8 10^3/M"
  }
]

Batch of 2 compounds: report Kapp for each.
1. COC(=O)C12OC(C(=O)OC)(C3C4CC(C5C(=O)N(CCNc6c7ccccc7nc7ccccc67)C(=O)C45)C31)C1C3CC(C4C(=O)N(CCNc5c6ccccc6nc6ccccc56)C(=O)C34)C12 (configuration not stated)
2. COC(=O)C12OC(C(=O)OC)(C3C4CC(C5C(=O)N(CCNC(=O)c6cccc7cc8ccccc8nc67)C(=O)C45)C31)C1C3CC(C4C(=O)N(CCNC(=O)c5cccc6cc7ccccc7nc56)C(=O)C34)C12 (configuration not stated)

1. 16.4 10^3/M
2. 6.8 10^3/M
